biological target: CDK2 (Homo sapiens, UniProt P24941); construct: endogenous in cells; host or cells: MKN1 cells; experiment: CDK2 degradation in MKN1 cells (AlphaLISA); type: cell-based; details: 14 h incubation, read-out: CDK2 degradation 14 h: Mean external-Abs DC50
Exercise: for every item that follows, state its recorded DC50.

1. Cc1cc(S(=O)(=O)C2CC3(CCN(CC4CCN(c5ccc6c(c5F)n(C)c(=O)n6C5CCC(=O)NC5=O)CC4)CC3)C2)ccc1Nc1ncc(C(F)(F)F)c(N2CCC(C(C)(C)O)C2)n1 (centres unmarked) [I-840]	< 100 nM

I would be grateful if you could provide DC50 for each of the following entries.
1. Cc1cc(S(=O)(=O)C2CCN(C3CCN(CC4CCN(c5cccc6c5n(C)c(=O)n6C5CCC(=O)NC5=O)CC4)CC3)CC2)ccc1Nc1ncc2cc(Cl)c(=O)n(C(C)C)c2n1 (centres unmarked)
2. Cc1cc(S(=O)(=O)NCCO[C@H]2CC[C@H](CN3CCC(c4ccc5c(c4)n(C)c(=O)n5C4CCC(=O)NC4=O)CC3)CC2)ccc1Nc1ncc2cc(Cl)c(=O)n(C(C)C)c2n1 (some centres unmarked)
3. Cc1cc(S(=O)(=O)C2CC3(CCN(CC4CCN(c5ccc6c(c5F)n(C)c(=O)n6C5CCC(=O)NC5=O)CC4)CC3)C2)ccc1Nc1ncc2cc(Cl)c(=O)n(C3CCCC3)c2n1 (centres unmarked)
4. Cc1cc(S(=O)(=O)NC2CCC(CN3CCC(c4ccc(C5CCC(=O)NC5=O)c(F)c4)CC3)CC2)ccc1Nc1ncc(C(F)(F)F)c(N2CCCC(C)(O)C2)n1 (centres unmarked)
5. Cc1cc(S(=O)(=O)NCCOC2CC3(C2)CN(Cc2ccc4c(c2)n(C)c(=O)n4C2CCC(=O)NC2=O)C3)ccc1Nc1ncc2ccc(=O)n(C3CCCC3)c2n1 (centres unmarked)
6. Cc1cc(S(=O)(=O)N2CCC3(CCN(Cc4cccc5c4n(C)c(=O)n5C4CCC(=O)NC4=O)CC3)CC2)ccc1Nc1ncc2ccc(=O)n(C3CCCC3)c2n1 (centres unmarked)
7. Cc1cc(S(=O)(=O)C2CC(N3CCC4(CC3)CN(c3cccc5c3n(C)c(=O)n5C3CCC(=O)NC3=O)C4)C2)ccc1Nc1ncc2cc(Cl)c(=O)n(C3CCCC3)c2n1 (centres unmarked)

1. < 100 nM
2. < 100 nM
3. < 100 nM
4. < 100 nM
5. < 100 nM
6. 100 to 500 nM
7. < 100 nM

I would be grateful if you could provide DC50 for each of the following entries.
1. Cc1cc(S(=O)(=O)C2CC3(CCN(CCOC4CN(c5ccc6c(c5F)n(C)c(=O)n6C5CCC(=O)NC5=O)C4)CC3)C2)ccc1Nc1ncc(C(F)(F)F)c(N2CCCC(C)(O)C2)n1 (centres unmarked)
2. Cc1cc(S(=O)(=O)N2CCC(CCN3CCN(c4cccc5c4n(C)c(=O)n5C4CCC(=O)NC4=O)CC3)CC2)ccc1Nc1ncc2cc(Cl)c(=O)n(C3CCCC3)c2n1 (centres unmarked)
3. Cc1cc(S(=O)(=O)NC2CCC(CN3CCN(c4ccc(C5CCC(=O)NC5=O)c(F)c4)CC3)CC2)cc(F)c1Nc1ncc(C(F)(F)F)c(N2CCCC(C)(O)C2)n1 (centres unmarked)

1. 100 to 500 nM
2. < 100 nM
3. < 100 nM
